Where do the numbers come from? From patent US20240109930A1.

These records show pIC50 for human Gal-3 (hGal-3) (Homo sapiens (Human), UniProt P17931).
The value called pIC50 is obtained by taking minus log10 of the concentration in mol/L.

## Input What value of pIC50 has been reported for the following molecule? CO[C@@H]1[C@@H](n2cc(-c3ccc(Cl)c(F)c3F)nn2)[C@@H](O)[C@@H](CO)O[C@@H]1Cc1cn(C2[C@H]3CCC[C@@H]23)nn1 (stereo partly shown) [Ex 2.1.20.]
## Output 7.22

New cases:
## Input What value of pIC50 has been reported for the following molecule? CO[C@@H]1[C@@H](n2cc(-c3ccc(Br)c(F)c3F)nn2)[C@@H](O)[C@@H](CO)O[C@@H]1Cc1cn(C2(C)CC2)nn1 [Ex 4.1.23.]
## Output 7.52

## Input What value of pIC50 has been reported for the following molecule? CO[C@@H]1[C@@H](n2cc(-c3ccc(C)c(F)c3F)nn2)[C@@H](O)[C@@H](CO)O[C@@H]1Cn1cc(C2(O)CCOCC2)nn1 [Ex 1.2.35.]
## Output 7.15

## Input What value of pIC50 has been reported for the following molecule? CO[C@@H]1[C@@H](n2cc(-c3ccc(Br)c(F)c3F)nn2)[C@@H](O)[C@@H](CO)O[C@@H]1Cc1cn(C2(CO)CC2)nn1 [Ex 4.1.4.]
## Output 7.40

## Input What value of pIC50 has been reported for the following molecule? CO[C@@H]1[C@@H](n2cc(-c3ccc(C#N)c(F)c3F)nn2)[C@@H](O)[C@@H](CO)O[C@@H]1Cc1cn(C2(C(F)(F)F)COC2)nn1 [Ex 5.1.58.]
## Output 7.15

## Input What value of pIC50 has been reported for the following molecule? CO[C@@H]1[C@@H](n2cc(-c3ccc(C)c(F)c3F)nn2)[C@@H](O)[C@@H](CO)O[C@@H]1Cc1cn([C@]2(C)C[C@H](O)C2)nn1 [Ex 1.1.19.]
## Output 7.70

## Input What value of pIC50 has been reported for the following molecule? CO[C@@H]1[C@@H](n2cc(-c3ccc(Cl)c(F)c3F)nn2)[C@@H](O)[C@@H](CO)O[C@@H]1Cc1cn(C23CC(OC)(C2)C3)nn1 [Ex 2.1.29.]
## Output 7.22

## Input What value of pIC50 has been reported for the following molecule? CO[C@@H]1[C@@H](n2cc(-c3ccc(Cl)c(F)c3F)nn2)[C@@H](O)[C@@H](CO)O[C@@H]1Cn1cc(C2(C)COC2)nn1 [Ex 2.2.6.]
## Output 7.52

## Input What value of pIC50 has been reported for the following molecule? CO[C@@H]1[C@@H](n2cc(-c3ccc(F)c(F)c3F)nn2)[C@@H](O)[C@@H](CO)O[C@@H]1Cc1cn(C2(C(F)(F)F)COC2)nn1 [Ex 3.1.58.]
## Output 7.40

## Input What value of pIC50 has been reported for the following molecule? COCC1(n2cc(C[C@H]3O[C@H](CO)[C@H](O)[C@H](n4cc(-c5ccc(C)c(F)c5F)nn4)[C@H]3OC)nn2)CC1 [Ex 1.1.7.]
## Output 7.22

## Input What value of pIC50 has been reported for the following molecule? CO[C@@H]1[C@@H](n2cc(-c3ccc(F)c(F)c3F)nn2)[C@@H](O)[C@@H](CO)O[C@@H]1Cc1cn(C2(C(F)F)CCC2)nn1 [Ex 3.1.43.]
## Output 7.52

## Input What value of pIC50 has been reported for the following molecule? CO[C@@H]1[C@@H](n2cc(-c3ccc(Cl)c(F)c3F)nn2)[C@@H](O)[C@@H](CO)O[C@@H]1Cc1cn([C@@H]2CCCC2(F)F)nn1 [Example 2.1.64.A]
## Output 7.52

## Input What value of pIC50 has been reported for the following molecule? CO[C@@H]1[C@@H](n2cc(-c3ccc(F)c(F)c3F)nn2)[C@@H](O)[C@@H](CO)O[C@@H]1Cc1cn(C2(C(F)(F)F)CCC2)nn1 [Ex 3.1.55.]
## Output 7.40

###

# systemTested: human Gal-3 (hGal-3) (Homo sapiens (Human))
# Sequence (P17931 whole entry): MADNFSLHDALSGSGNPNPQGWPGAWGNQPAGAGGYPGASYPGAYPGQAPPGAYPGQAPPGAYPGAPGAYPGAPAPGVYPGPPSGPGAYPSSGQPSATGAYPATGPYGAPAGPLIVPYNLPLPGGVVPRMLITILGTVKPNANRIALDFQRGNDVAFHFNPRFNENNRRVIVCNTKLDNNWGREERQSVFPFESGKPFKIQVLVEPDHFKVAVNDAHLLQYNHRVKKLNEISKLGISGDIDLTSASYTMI
# experimentSummary: Competitive binding assay: biotinylated hGal-3 binding to microplate-adsorbed asialofetuin (ASF)
# conditionContext: IC50 values from several measurements given as geomean
Reported IC50 by item:
# unit: nM | format: bare number

## Input What value of IC50 has been reported for the following molecule? CO[C@@H]1[C@@H](n2cc(-c3ccc(Cl)c(F)c3F)nn2)[C@@H](O)[C@@H](CO)O[C@@H]1Cc1cn([C@]2(C)C[C@H](F)C2)nn1 [Ex 2.1.47.B]
## Output 30

## Input What value of IC50 has been reported for the following molecule? CO[C@@H]1[C@@H](n2cc(-c3ccc(Br)c(F)c3F)nn2)[C@@H](O)[C@@H](CO)O[C@@H]1Cc1cn(C(C)(C)C(F)F)nn1 [Ex 4.1.28.]
## Output 50

## Input What value of IC50 has been reported for the following molecule? CO[C@@H]1[C@@H](n2cc(-c3ccc(Cl)c(F)c3F)nn2)[C@@H](O)[C@@H](CO)O[C@@H]1Cn1cc(C2CC3(C2)CC(F)(F)C3)nn1 [Ex 2.2.84.]
## Output 240

## Input What value of IC50 has been reported for the following molecule? CO[C@@H]1[C@@H](n2cc(-c3ccc(Cl)c(F)c3F)nn2)[C@@H](O)[C@@H](CO)O[C@@H]1Cc1cn(C2CC23CC3(F)F)nn1 (stereo partly drawn) [Ex 2.1.75.]
## Output 50

New cases:
## Input What value of IC50 has been reported for the following molecule? CO[C@@H]1[C@@H](n2cc(-c3ccc(Cl)c(F)c3F)nn2)[C@@H](O)[C@@H](CO)O[C@@H]1Cc1cn([C@@H]2CCOC[C@H]2F)nn1 [Example 2.1.66.C]
## Output 20

## Input What value of IC50 has been reported for the following molecule? CO[C@@H]1[C@@H](n2cc(-c3ccc(Cl)c(F)c3F)nn2)[C@@H](O)[C@@H](CO)O[C@@H]1Cc1cn(C2(C)CCC2)nn1 [Ex 2.1.13.]
## Output 20

###

# systemTested: human Gal-1 (hGal-1) (Homo sapiens, UniProt P09382, C131S/C17S/C43S/C61S/C89S)
# experimentSummary: Competitive binding assay: biotinylated hGal-1 binding to microplate-adsorbed asialofetuin (ASF)
# conditionContext: IC50 values from several measurements given as geomean
endpointLabel: pIC50
The value called pIC50 is obtained by taking minus log10 of the concentration in mol/L.

Worked cases, pIC50 given:
## Input What value of pIC50 has been reported for the following molecule? CO[C@@H]1[C@@H](n2cc(-c3ccc(Br)c(F)c3F)nn2)[C@@H](O)[C@@H](CO)O[C@@H]1Cc1cn(C2(C)CCC2)nn1
## Output 5.66

## Input What value of pIC50 has been reported for the following molecule? CO[C@@H]1[C@@H](n2cc(-c3ccc(F)c(F)c3F)nn2)[C@@H](O)[C@@H](CO)O[C@@H]1Cn1cc(C2(O)CCC2)nn1
## Output 6.14

## Input What value of pIC50 has been reported for the following molecule? CO[C@@H]1[C@@H](n2cc(-c3ccc(Cl)c(F)c3F)nn2)[C@@H](O)[C@@H](CO)O[C@@H]1Cc1cn(C2CCC2(F)F)nn1 (single isomer, unassigned) [Example 2.1.63.A]
## Output 5.66

New cases:
## Input What value of pIC50 has been reported for the following molecule? CO[C@@H]1[C@@H](n2cc(-c3ccc(Br)c(F)c3F)nn2)[C@@H](O)[C@@H](CO)O[C@@H]1Cn1cc(C2(C)CCC2)nn1
## Output 5.71

## Input What value of pIC50 has been reported for the following molecule? CO[C@@H]1[C@@H](n2cc(-c3ccc(Cl)c(F)c3F)nn2)[C@@H](O)[C@@H](CO)O[C@@H]1Cc1cn(C23COC(C)(C2)C3)nn1
## Output 5.63

## Input What value of pIC50 has been reported for the following molecule? CO[C@@H]1[C@@H](n2cc(-c3ccc(Cl)c(F)c3F)nn2)[C@@H](O)[C@@H](CO)O[C@@H]1Cc1cn(C(C)(C)CF)nn1
## Output 5.83

###

Reported pIC50 by item:
# systemTested: UniProt:P17931
The value called pIC50 is obtained by taking minus log10 of the concentration in mol/L.

Worked cases, pIC50 given:
## Input What value of pIC50 has been reported for the following molecule? CO[C@@H]1[C@@H](n2cc(-c3ccc(Cl)c(F)c3F)nn2)[C@@H](O)[C@@H](CO)O[C@@H]1Cc1cn(C2(C)COC2)nn1 [Ex 2.1.6.]
## Output 7.40

## Input What value of pIC50 has been reported for the following molecule? CO[C@@H]1[C@@H](n2cc(-c3ccc(F)c(F)c3F)nn2)[C@@H](O)[C@@H](CO)O[C@@H]1Cc1cn([C@]2(C)C[C@H](O)C2)nn1 [Ex 3.1.19.]
## Output 7.22

New cases:
## Input What value of pIC50 has been reported for the following molecule? CO[C@@H]1[C@@H](n2cc(-c3ccc(Cl)c(F)c3F)nn2)[C@@H](O)[C@@H](CO)O[C@@H]1Cc1cn(C23CCOC(C)(C2)C3)nn1 [Ex 2.1.62.]
## Output 7.52

## Input What value of pIC50 has been reported for the following molecule? CO[C@@H]1[C@@H](n2cc(-c3ccc(Cl)c(F)c3F)nn2)[C@@H](O)[C@@H](CO)O[C@@H]1Cc1cn([C@]2(C)CCO[C@@H]2C)nn1 (single isomer, unassigned) [Example 2.1.68.B]
## Output 7.70

## Input What value of pIC50 has been reported for the following molecule? CO[C@@H]1[C@@H](n2cc(-c3ccc(Br)c(F)c3F)nn2)[C@@H](O)[C@@H](CO)O[C@@H]1Cc1cn(C2(CCO)COC2)nn1 [Ex 4.1.22.]
## Output 7.15
